Entries and their pKi
Biological target: Rabbit skeletal myosin
Assay: Skeletal muscle myosin II actin-activated ATPase assay
Format: biochemical
Conditions: 20 nM skeletal muscle myosin II; read-out: SKMMII KI
Method: The cardiac muscle myosin II actin-activated ATPase assay is a biochemical assay. Specifically, it is an NADH (nicotinamide adenine dinucleotide)-coupled ATPase assay that relies on NADH fluorescence as a readout. […] NADH fluorescence is monitored for 30 minutes with an EnVision Multimode Plate Reader. The slope of the fluorescence response, which is proportional to the reaction rate, is determined by simple linear regression. […]
Bear in mind: pKi is minus log10 of a mol/L concentration; give just that figure.

| molecule | pKi |
| --- | --- |
| Cc1sc2c(c1C)C(=O)[C@]1(O)CCN(c3ccc(C#N)c(Cl)c3)C1=N2 | 5.43 |
| Cc1cc2c(cc1C)C(=O)[C@]1(O)CCN(c3ccc4c(c3)OCCO4)C1=N2 | 6.00 |

molecule Cc1ccc(N2CC[C@@]3(O)C(=O)c4cc(Cl)ccc4N=C23)cc1 , pKi observed: 6.37

molecule N#Cc1ccc(N2CC[C@@]3(O)C(=O)c4cc(C(F)(F)F)ccc4N=C23)cc1 , pKi observed: 5.77

molecule Cc1ccc2c(c1)C(=O)[C@]1(O)CCN(c3ccc4c(C)noc4c3)C1=N2 , pKi observed: 6.09

molecule Cc1ncc(N2CC[C@@]3(O)C(=O)c4cc(C)c(C)cc4N=C23)s1 , pKi observed: 6.57

molecule Cc1sc2c(c1C)C(=O)[C@]1(O)CCN(c3ccc(I)cc3)C1=N2 , pKi observed: 6.54

molecule Cc1cc2c(cc1C)C(=O)[C@]1(O)CCN(c3cnc(C#N)c(C)c3)C1=N2 , pKi observed: 6.03

molecule COc1ccc(N2CC[C@@]3(O)C(=O)c4cc(F)c(C)cc4N=C23)cc1 , pKi observed: 6.54

molecule Cc1ccc2c(c1)C(=O)[C@]1(O)CCN(c3cnc(C#N)c(Cl)c3)C1=N2 , pKi observed: 5.89

molecule Cc1cc2c(s1)C(=O)[C@]1(O)CCN(c3cccc(Br)c3)C1=N2 , pKi observed: 4.80
